TARGET ENTITY: Cytochrome P450 2D6 (Homo sapiens) (UniProt P10635)
Sequence (P10635 whole entry, looked up): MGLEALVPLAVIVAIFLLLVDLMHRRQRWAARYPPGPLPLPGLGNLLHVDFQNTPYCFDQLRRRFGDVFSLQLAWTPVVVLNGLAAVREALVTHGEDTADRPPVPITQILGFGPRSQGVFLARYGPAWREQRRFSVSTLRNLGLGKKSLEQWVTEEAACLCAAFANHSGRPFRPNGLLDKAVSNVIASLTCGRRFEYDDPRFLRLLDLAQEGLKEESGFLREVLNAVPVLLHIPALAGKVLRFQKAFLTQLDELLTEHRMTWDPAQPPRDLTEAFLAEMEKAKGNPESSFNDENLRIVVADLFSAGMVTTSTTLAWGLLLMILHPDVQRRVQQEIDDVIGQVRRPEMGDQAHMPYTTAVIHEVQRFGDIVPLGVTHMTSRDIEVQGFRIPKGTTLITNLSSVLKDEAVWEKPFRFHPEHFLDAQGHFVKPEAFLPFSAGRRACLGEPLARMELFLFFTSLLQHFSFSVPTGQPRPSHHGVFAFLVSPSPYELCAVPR
TEST METHOD NOTES: Cytochrome P450 Family 2 Subfamily D Member 6 (CYP2D6) small molecule antagonists: luciferase reporter qHTS assay (AID 1671196); further: nearly all actives have a fitted effect of over 50% in size
CONDITIONS: P450-Glo CYP2D6 enzyme assay, luciferin luminescence, 1 h; series mostly up to 115 µM
Inconclusive results are not listed. Activity calls are given as the source filed them. The call rests on the fitted dose curve; in most records, active means well fitted inhibition curve with a large enough effect in the repeat runs; inconclusive means weak or mixed curves; inactive means no such curve, though single readings can be large or run the other way.
Outcomes: active, inactive

>>> assigned_class("COc1cc(NC(=O)CC(C)=O)c(OC)cc1Cl")
"active"
>>> assigned_class("Cc1cccc(C)c1[N+](=O)[O-]")
"inactive"
>>> assigned_class("N[C@@H](Cc1cc(I)c(Oc2ccc(O)c(I)c2)c(I)c1)C(=O)O")
"inactive"
>>> assigned_class("NC(=O)c1ncn([C@@H]2O[C@H](CO)[C@@H](O)[C@H]2O)n1")
"inactive"
>>> assigned_class("CCCCCC(C)=O")
"inactive"
>>> assigned_class("O=C(c1ccccc1)c1ccc(O)c(O)c1O")
"active"
>>> assigned_class("C[Si](C)(C)N[Si](C)(C)C")
"inactive"
>>> assigned_class("COc1ccc([C@@H]2CC(=O)c3c(O)cc(O[C@@H]4O[C@H](CO[C@@H]5O[C@@H](C)[C@H](O)[C@@H](O)[C@H]5O)[C@@H](O)[C@H](O)[C@H]4O)cc3O2)cc1OC")
"inactive"
>>> assigned_class("O=Cc1ccc(CO)o1")
"inactive"
>>> assigned_class("Cc1cc(C)c(O)c(C)c1")
"inactive"
>>> assigned_class("Cc1cc(CC(=O)O)n(C)c1C(=O)c1ccc(Cl)cc1")
"inactive"
>>> assigned_class("CCOC(=O)CC(=O)OCC")
"inactive"
>>> assigned_class("CC1=CC(=O)CC(C)(C)C1")
"inactive"
>>> assigned_class("O=[N+]([O-])c1ccccc1C(F)(F)F")
"inactive"
>>> assigned_class("CC1(C)C(=O)N(Cl)C(=O)N1Cl")
"inactive"
>>> assigned_class("CC(=O)OCCC(C)C")
"inactive"
>>> assigned_class("C=C(C)CC(C)(C)C")
"inactive"
>>> assigned_class("CC(=O)CC(=O)N(C)C")
"inactive"
>>> assigned_class("CC(=O)Nc1ccc(CC(=O)O)cc1")
"inactive"
>>> assigned_class("CCCCC(CC)COC(=O)c1ccc(C(=O)OCC(CC)CCCC)cc1 (stereo not given)")
"inactive"
>>> assigned_class("CC(=O)OC[C@H]1O[C@@](COC(C)=O)(O[C@H]2O[C@H](COC(C)=O)[C@@H](OC(C)=O)[C@H](OC(C)=O)[C@H]2OC(C)=O)[C@@H](OC(C)=O)[C@@H]1OC(C)=O")
"inactive"
>>> assigned_class("O=C(Cl)c1ccc(C(=O)Cl)cc1")
"inactive"
>>> assigned_class("CC/C(C)=N/O")
"inactive"
>>> assigned_class("COC(=O)OC")
"inactive"
>>> assigned_class("OCc1ccc(Cl)cc1Cl")
"inactive"
>>> assigned_class("OB(O)O")
"inactive"
>>> assigned_class("Brc1ccc(Oc2ccc(Br)cc2)cc1")
"inactive"
>>> assigned_class("Cc1ncc(CO)c(CO)c1O")
"inactive"
>>> assigned_class("C[n+]1ccn(CCO)c1")
"inactive"
>>> assigned_class("O=C(O)Cc1c[nH]c2ccccc12")
"inactive"
